- target_desc: corticotropin releasing factor 1 receptor
- method_summary: cell-based or functional assay
endpoint_name: CRF1R Emax % (%)
# unit: % | format: bare number

• ZGPPISIDLPLQLLRKVIEIEKQEKEKQQATTNARILARV (C-terminal amide) [SEQ ID NO 320] = 68.8
• ZGPPISIDLPFHLLRKMIEIEKQEKEKQQAANNALLLATI (C-terminal amide) [SEQ ID NO 229] = 100

Let us examine a further case.
Value of CRF1R Emax % reported for the binder ZGPPISIDLPLQLLEKMIEIEKQEKEKQQAANNALLLATI (C-terminal amide) [SEQ ID NO 249] is 50
